# test: MTT cell viability assay
# Assay type: cell-based, rat
# setupConditions: rat, RBL-2H3 cells
propertyName: viability at 100 µM

> print(dat)
                                   molecule  reportedresult
1  COc1cc(O)c2c(=O)c(OC)c(-c3ccc(O)c(OC)c3)oc2c1 [Compound 9, pachypodol]           > 90%

Now look at this entry.
In: Look up viability at 100 µM: COc1cc(O)c2c(=O)c(OC)c(-c3ccc(O)cc3)oc2c1 [Compound 7, kumatakenin]
Out: > 90%

Cited source: paper PMC9057237
